# Test system: E. faecium L4001
# Type: cell-based, Enterococcus faecium
# Condition Context: L4001
*1 amine or outer side, *2 acyl side, *3 side chain or, on linkers, in order; H or OH if unused. Where a SMILES comes first, the peptide text is derived from it. Bridges are numbered along the chain shown (N, C = ends). [ ]: non-standard residue; d: D form. Phe(3R-OH) = O=C([C@@H](N[*:1])[C@H](O[*:3])c1ccccc1)[*:2]; Asn(3S-OH) = NC(=O)[C@@H](O)[C@H](N)C(=O)O; Leu(3R-OH) = CC(C)[C@@H](O)[C@H](N)C(=O)O; aThr = C[C@H](O)[C@H](N)C(=O)O
Property: MIC E. faecium L4001 (µg/mL)
State the answer as a number, implicitly in µg/mL.

The molecule CC[C@H](C)[C@@H]1NC(=O)[C@@H](CCCNC(=N)N)NC(=O)[C@H](CC(C)C)NC(=O)[C@H]([C@H](O)C(C)C)NC(=O)[C@@H](NC(=O)[C@H](Cc2ccccc2)NC(=O)[C@H](N)Cc2ccccc2)[C@@H](c2ccccc2)OC(=O)[C@H](CO)NC(=O)[C@H]([C@H](O)C(N)=O)NC(=O)CNC(=O)[C@H]([C@H](C)O)NC1=O.O=C(O)C(F)(F)F.O=C(O)C(F)(F)F [Example 82] (H-[dF]F[Phe(3R-OH)][Leu(3R-OH)]L[dR]I[aThr]G[Asn(3S-OH)]S; ester 3-C) on E. faecium L4001: MIC E. faecium L4001 was 0.5

###

# Test system: Streptococcus pneumoniae G9a
# Format: cell-based
# Condition Context: BHI broth with 10% bovine serum, 10^6 microbes per ml, 10% CO2, 37° C., 18-24 hours
*1 amine or outer side, *2 acyl side, *3 side chain or, on linkers, in order; H or OH if unused. Where a SMILES comes first, the peptide text is derived from it. Bridges are numbered along the chain shown (N, C = ends). [ ]: non-standard residue; d: D form. The star is where a group is joined. ξ: configuration not given here. Phe(3R-OH) = O=C([C@@H](N[*:1])[C@H](O[*:3])c1ccccc1)[*:2]; Phe(3,4-(OMe)2) = COc1ccc(C[C@H](N)C(=O)O)cc1OC; Asn(3S-OH) = NC(=O)[C@@H](O)[C@H](N)C(=O)O; Leu(3R-OH) = CC(C)[C@@H](O)[C@H](N)C(=O)O; d(tBuAla) = CC(C)(C)C[C@@H](N)C(=O)O; tBuAla = CC(C)(C)C[C@H](N)C(=O)O; aThr = C[C@H](O)[C@H](N)C(=O)O; ξIle = CC[C@H](C)C(N)C(=O)O; Ac6c = NC1(C(=O)O)CCCCC1; OtBu = CC(C)(C)O*
Reported MIC S. pneumoniae by item:
Field format: number, assumed µg/mL, no unit text.

Some compounds with recorded MIC S. pneumoniae:
# Compound, MIC S. pneumoniae / µg/mL
records = [
    ("CC[C@H](C)C1NC(=O)[C@@H](CCCNC(=N)N)NC(=O)[C@H](CC(C)C)NC(=O)[C@H]([C@H](O)C(C)C)NC(=O)[C@@H](NC(=O)[C@H](CC(=O)OC(C)(C)C)NC(=O)[C@H](N)CC(C)(C)C)[C@@H](c2ccccc2)OC(=O)[C@H](CO)NC(=O)[C@H]([C@H](O)C(N)=O)NC(=O)CNC(=O)[C@H]([C@H](C)O)NC1=O.O=C(O)C(F)(F)F.O=C(O)C(F)(F)F (stereo partly drawn) [Example 101] (H-[d(tBuAla)]D(OtBu)[Phe(3R-OH)][Leu(3R-OH)]L[dR][ξIle][aThr]G[Asn(3S-OH)]S; ester 3-C)", 0.5),
    ("CC[C@H](C)[C@@H]1NC(=O)[C@@H](CCCNC(=N)N)NC(=O)[C@H](CC(C)C)NC(=O)[C@H]([C@H](O)C(C)C)NC(=O)[C@@H](NC(=O)[C@H](Cc2ccc(OC)c(OC)c2)NC(=O)[C@H](N)CC(C)(C)C)[C@@H](c2ccccc2)OC(=O)[C@H](CO)NC(=O)[C@H]([C@H](O)C(N)=O)NC(=O)CNC(=O)[C@H]([C@H](C)O)NC1=O [Example 86] (H-[d(tBuAla)][Phe(3,4-(OMe)2)][Phe(3R-OH)][Leu(3R-OH)]L[dR]I[aThr]G[Asn(3S-OH)]S; ester 3-C)", 0.125),
]

Turning to the following compound.
The compound CC[C@H](C)C1NC(=O)[C@@H](CCCNC(=N)N)NC(=O)[C@H](CC(C)C)NC(=O)[C@H]([C@H](O)C(C)C)NC(=O)[C@@H](NC(=O)[C@H](CC(C)(C)C)NC(=O)C2(N)CCCCC2)[C@@H](c2ccccc2)OC(=O)[C@H](CO)NC(=O)[C@H]([C@H](O)C(N)=O)NC(=O)CNC(=O)[C@H]([C@H](C)O)NC1=O.O=C(O)C(F)(F)F.O=C(O)C(F)(F)F (stereo partly drawn) [Example 105] (H-[Ac6c][tBuAla][Phe(3R-OH)][Leu(3R-OH)]L[dR][ξIle][aThr]G[Asn(3S-OH)]S; ester 3-C) , tested on Streptococcus pneumoniae G9a, showed MIC S. pneumoniae of 0.063

###

# System: E. faecalis ICB 27159
# Type: cell-based, Enterococcus faecalis
# Condition Context: ICB 27159
*1 amine or outer side, *2 acyl side, *3 side chain or, on linkers, in order; H or OH if unused. Where a SMILES comes first, the peptide text is derived from it. Bridges are numbered along the chain shown (N, C = ends). [ ]: non-standard residue; d: D form. Phe(3R-OH) = O=C([C@@H](N[*:1])[C@H](O[*:3])c1ccccc1)[*:2]; Asn(3S-OH) = NC(=O)[C@@H](O)[C@H](N)C(=O)O; Leu(3R-OH) = CC(C)[C@@H](O)[C@H](N)C(=O)O; Ala(SiMe3) = C[Si](C)(C)C[C@H](N)C(=O)O; d(tBuAla) = CC(C)(C)C[C@@H](N)C(=O)O; dPhe(2-F) = N[C@H](Cc1ccccc1F)C(=O)O; tBuAla = CC(C)(C)C[C@H](N)C(=O)O; 2Pal = N[C@@H](Cc1ccccn1)C(=O)O; 3Pal = N[C@@H](Cc1cccnc1)C(=O)O; aThr = C[C@H](O)[C@H](N)C(=O)O; Ac6c = NC1(C(=O)O)CCCCC1
Property: MIC E. faecalis ICB 27159 (mg/L)
State just the number; it will be interpreted in mg/L.

# annotated cases, reported MIC E. faecalis ICB 27159 shown
# Compound, Measured On, MIC E. faecalis ICB 27159 (mg/L)
measured = [
    ("CC[C@H](C)[C@@H]1NC(=O)[C@@H](CCCNC(=N)N)NC(=O)[C@H](CC(C)C)NC(=O)[C@H]([C@H](O)C(C)C)NC(=O)[C@@H](NC(=O)[C@H](CC(C)C)NC(=O)[C@H](N)CCSC)[C@@H](c2ccccc2)OC(=O)[C@H](CO)NC(=O)[C@H]([C@H](O)C(N)=O)NC(=O)CNC(=O)[C@H]([C@H](C)O)NC1=O [Example 24] (H-[dM]L[Phe(3R-OH)][Leu(3R-OH)]L[dR]I[aThr]G[Asn(3S-OH)]S; ester 3-C)", "E. faecalis ICB 27159", 2),
    ("CC[C@H](C)[C@@H]1NC(=O)[C@@H](CCCNC(=N)N)NC(=O)[C@H](CC(C)C)NC(=O)[C@H]([C@H](O)C(C)C)NC(=O)[C@@H](NC(=O)[C@H](Cc2ccccn2)NC(=O)[C@H](N)CC(C)(C)C)[C@@H](c2ccccc2)OC(=O)[C@H](CO)NC(=O)[C@H]([C@H](O)C(N)=O)NC(=O)CNC(=O)[C@H]([C@H](C)O)NC1=O [Example 97] (H-[d(tBuAla)][2Pal][Phe(3R-OH)][Leu(3R-OH)]L[dR]I[aThr]G[Asn(3S-OH)]S; ester 3-C)", "E. faecalis ICB 27159", 0.5),
    ("CC[C@H](C)[C@@H]1NC(=O)[C@@H](CCCNC(=N)N)NC(=O)[C@H](CC(C)C)NC(=O)[C@H]([C@H](O)C(C)C)NC(=O)[C@@H](NC(=O)[C@H](CC(C)C)NC(=O)C2(N)CCCCC2)[C@@H](c2ccccc2)OC(=O)[C@H](CO)NC(=O)[C@H]([C@H](O)C(N)=O)NC(=O)CNC(=O)[C@H]([C@H](C)O)NC1=O [Example 57] (H-[Ac6c]L[Phe(3R-OH)][Leu(3R-OH)]L[dR]I[aThr]G[Asn(3S-OH)]S; ester 3-C)", "E. faecalis ICB 27159", 1),
    ("CC[C@H](C)[C@@H]1NC(=O)[C@@H](CCCNC(=N)N)NC(=O)[C@H](CC(C)C)NC(=O)[C@H]([C@H](O)C(C)C)NC(=O)[C@@H](NC(=O)[C@H](CC(C)C)NC(=O)[C@H](N)CC(C)C)[C@@H](c2ccccc2)OC(=O)[C@H](CO)NC(=O)[C@H]([C@H](O)C(N)=O)NC(=O)CNC(=O)[C@H]([C@H](C)O)NC1=O.O=C(O)C(F)(F)F.O=C(O)C(F)(F)F [Example 1A, reference compound] (H-[dL]L[Phe(3R-OH)][Leu(3R-OH)]L[dR]I[aThr]G[Asn(3S-OH)]S; ester 3-C)", "E. faecalis ICB 27159", 1),
    ("CC[C@H](C)[C@@H]1NC(=O)[C@@H](CCCNC(=N)N)NC(=O)[C@H](CC(C)C)NC(=O)[C@H]([C@H](O)C(C)C)NC(=O)[C@@H](NC(=O)[C@H](CC(C)(C)C)NC(=O)[C@H](N)CC(C)(C)C)[C@@H](c2ccccc2)OC(=O)[C@H](CO)NC(=O)[C@H]([C@H](O)C(N)=O)NC(=O)CNC(=O)[C@H]([C@H](C)O)NC1=O.O=C(O)C(F)(F)F.O=C(O)C(F)(F)F [Example 68] (H-[d(tBuAla)][tBuAla][Phe(3R-OH)][Leu(3R-OH)]L[dR]I[aThr]G[Asn(3S-OH)]S; ester 3-C)", "E. faecalis ICB 27159", 0.5),
    ("CC[C@H](C)[C@@H]1NC(=O)[C@@H](CCCNC(=N)N)NC(=O)[C@H](CC(C)C)NC(=O)[C@H]([C@H](O)C(C)C)NC(=O)[C@@H](NC(=O)[C@H](CC(C)C)NC(=O)[C@H](N)Cc2ccccc2F)[C@@H](c2ccccc2)OC(=O)[C@H](CO)NC(=O)[C@H]([C@H](O)C(N)=O)NC(=O)CNC(=O)[C@H]([C@H](C)O)NC1=O [Example 23] (H-[dPhe(2-F)]L[Phe(3R-OH)][Leu(3R-OH)]L[dR]I[aThr]G[Asn(3S-OH)]S; ester 3-C)", "E. faecalis ICB 27159", 1),
]

Noted for CC[C@H](C)[C@@H]1NC(=O)[C@@H](CCCNC(=N)N)NC(=O)[C@H](CC(C)C)NC(=O)[C@H]([C@H](O)C(C)C)NC(=O)[C@@H](NC(=O)[C@H](Cc2cccnc2)NC(=O)[C@H](N)CC(C)(C)C)[C@@H](c2ccccc2)OC(=O)[C@H](CO)NC(=O)[C@H]([C@H](O)C(N)=O)NC(=O)CNC(=O)[C@H]([C@H](C)O)NC1=O [Example 69] (H-[d(tBuAla)][3Pal][Phe(3R-OH)][Leu(3R-OH)]L[dR]I[aThr]G[Asn(3S-OH)]S; ester 3-C) : its MIC E. faecalis ICB 27159 reads 1

Entry CC[C@H](C)[C@@H]1NC(=O)[C@@H](CCCNC(=N)N)NC(=O)[C@H](CC(C)C)NC(=O)[C@H]([C@H](O)C(C)C)NC(=O)[C@@H](NC(=O)[C@H](Cc2ccccc2)NC(=O)[C@H](N)Cc2ccccc2)[C@@H](c2ccccc2)OC(=O)[C@H](CO)NC(=O)[C@H]([C@H](O)C(N)=O)NC(=O)CNC(=O)[C@H]([C@H](C)O)NC1=O.O=C(O)C(F)(F)F.O=C(O)C(F)(F)F [Example 82] (H-[dF]F[Phe(3R-OH)][Leu(3R-OH)]L[dR]I[aThr]G[Asn(3S-OH)]S; ester 3-C) ; MIC E. faecalis ICB 27159 = 1

Input CC[C@H](C)[C@@H]1NC(=O)[C@@H](CCCNC(=N)N)NC(=O)[C@H](CC(C)C)NC(=O)[C@H]([C@H](O)C(C)C)NC(=O)[C@@H](NC(=O)[C@H](CC(C)C)NC(=O)[C@@H](N)C[Si](C)(C)C)[C@@H](c2ccccc2)OC(=O)[C@H](CO)NC(=O)[C@H]([C@H](O)C(N)=O)NC(=O)CNC(=O)[C@H]([C@H](C)O)NC1=O [Example 30] (H-[Ala(SiMe3)]L[Phe(3R-OH)][Leu(3R-OH)]L[dR]I[aThr]G[Asn(3S-OH)]S; ester 3-C) . Output MIC E. faecalis ICB 27159: 1

# credit: patent US7368424B2
